Molecular target: human CYP11B2 (Homo sapiens, UniProt P19099)
Sequence (P19099 25-503): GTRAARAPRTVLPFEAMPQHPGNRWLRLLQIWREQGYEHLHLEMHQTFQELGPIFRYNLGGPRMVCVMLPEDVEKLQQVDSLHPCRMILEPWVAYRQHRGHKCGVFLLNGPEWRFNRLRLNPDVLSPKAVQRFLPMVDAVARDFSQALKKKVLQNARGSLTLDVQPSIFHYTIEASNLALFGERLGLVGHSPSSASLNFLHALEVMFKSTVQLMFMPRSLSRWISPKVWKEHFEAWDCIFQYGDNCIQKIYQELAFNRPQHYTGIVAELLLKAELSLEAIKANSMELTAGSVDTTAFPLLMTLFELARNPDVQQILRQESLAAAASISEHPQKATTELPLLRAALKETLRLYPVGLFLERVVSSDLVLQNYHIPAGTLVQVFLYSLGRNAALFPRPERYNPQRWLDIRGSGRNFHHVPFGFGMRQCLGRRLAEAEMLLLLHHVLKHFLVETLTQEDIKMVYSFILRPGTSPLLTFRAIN
Assay: Inhibition of hCYP11B2 in transfected V79 cells
Settings: hamster V79 cells expressing human CYP11B2; substrate 11-deoxycorticosterone 200 nM
quantity_kind: IC50 (nM)

Here is how some compounds turned out for IC50.
[
  {
    "compound": "N#Cc1ccc(-c2cncc3c2OCCN3S(=O)(=O)c2ccc(F)cc2)cc1",
    "units_of_measure": "nM",
    "recorded_measurement": 0.13
  },
  {
    "compound": "O=C(c1ccccc1F)N1CCc2c(-c3cccc([N+](=O)[O-])c3)cncc21",
    "units_of_measure": "nM",
    "recorded_measurement": 11
  },
  {
    "compound": "N#Cc1ccc(-c2cncc3c2OCCN3C(=O)c2cccc(F)c2)cc1",
    "units_of_measure": "nM",
    "recorded_measurement": 25.2
  },
  {
    "compound": "COC(=O)c1ccc(C(=O)N2CCc3c(-c4ccc(C#N)cc4)cncc32)cc1",
    "units_of_measure": "nM",
    "recorded_measurement": 17
  },
  {
    "compound": "N#Cc1ccc(-c2cncc3c2OCCN3C(=O)c2cccc([N+](=O)[O-])c2)cc1",
    "units_of_measure": "nM",
    "recorded_measurement": 23.6
  },
  {
    "compound": "N#Cc1ccc(-c2cncc3c2OCCN3S(=O)(=O)C2CN(c3cccc(F)c3)C2)cc1",
    "units_of_measure": "nM",
    "recorded_measurement": 3
  },
  {
    "compound": "N#Cc1ccc(-c2cncc3c2OCCN3C(=O)C2CN(Cc3cccc(C#N)c3)C2)cc1",
    "units_of_measure": "nM",
    "recorded_measurement": 1
  },
  {
    "compound": "N#Cc1ccc(-c2cncc3c2CCN3C(=O)Cc2ccc(F)cc2)cc1",
    "units_of_measure": "nM",
    "recorded_measurement": 2.4
  },
  {
    "compound": "N#CC1CN(S(=O)(=O)N2CCSc3c(-c4cc5cc(Cl)ccc5o4)cncc32)C1",
    "units_of_measure": "nM",
    "recorded_measurement": 25
  },
  {
    "compound": "COc1ccc(S(=O)(=O)N2CCSc3c(-c4cn[nH]c4)cncc32)cc1",
    "units_of_measure": "nM",
    "recorded_measurement": 264
  }
]

A. N#Cc1ccc(-c2cncc3c2SCCN3S(=O)(=O)C2CN(S(=O)(=O)c3cccc(F)c3)C2)cc1
B. N#Cc1ccc(-c2cncc3c2SCCN3S(=O)(=O)c2ccc(C#N)cc2)cc1
C. N#CC12CC(S(=O)(=O)N3CCSc4c(-c5cc6cc(Cl)ccc6o5)cncc43)(C1)C2
Rank order required: IC50, descending. List the labels according to the requested ordering.
C, A, B

1. N#Cc1ccc(-c2cncc3c2OCCN3C(=O)Cc2ccc(F)cc2)cc1
2. COc1cccc(C(=O)N2CC(S(=O)(=O)N3CCOc4c(-c5ccc(C#N)cc5)cncc43)C2)c1
3. N#Cc1ccc(-c2cncc3c2ccn3S(=O)(=O)c2ccc([N+](=O)[O-])cc2)cc1 [E1]
List by increasing IC50. Enter labels, ranked according to the request.
3, 1, 2
(3: 0.5 nM, 1: 1.8 nM, 2: 27 nM)

A. Cc1cccc(S(=O)(=O)N2CCSc3c(-c4ccc(C#N)cc4)cncc32)c1
B. N#Cc1ccc(S(=O)(=O)N2CCSc3c(-c4ccc5[nH]ncc5c4)cncc32)cc1
Between the two listed entries A and B , which has its IC50 at the higher number? Refer to your chosen item by its label in the answer.
B
